Test system: HA-ERK5-ΔP493 (MEK5D-activated, MEF2D-Gal4/Gal4-Luc reporter) in HEK293T cells
Assay: Truncated dual-luciferase reporter assay, HEK293T forward transfection
Type: cell-based
Conditions: Homo sapiens, HEK-293T, average where more than one data point, read-out: Truncated ERK 5 Reporter Assay
Description: Truncated Dual-Luciferase Reporter Assay HEK293T and HeLa Forward Transfection […] Cell Lysis and Luciferase Quantification After 24 h incubation in the absence (control) or presence of potential inhibitor, the culture medium was aspirated and cells lysed in 20 μl 1× passive lysis buffer (Dual-Luciferase Reporter Assay System, Promega) for a minimum of 15 min with agitation. […] Cellular inhibition of ERK5 was quantified using the Dual-Luciferase Reporter Assay System (Promega). […]
Property Measured: log10 of IC50 (log10 of the value in nM)

[
  {
    "Molecule": "CN(C)CCNc1ncc(NC(=O)c2cc(C(=O)c3c(Cl)ccc(Cl)c3F)c[nH]2)cn1 [Example 99]",
    "Recorded Measurement": 2.09
  },
  {
    "Molecule": "COc1ccc(Cl)c(C(=O)c2c[nH]c(C(=O)Nc3cnc(CC4CCNCC4)nc3)c2)c1F [Example 252]",
    "Recorded Measurement": 2.80
  },
  {
    "Molecule": "O=C(Nc1cnc(NCCN2CCCCC2)nc1)c1cc(C(=O)c2c(Cl)ccc(Cl)c2F)c[nH]1 [Example 104]",
    "Recorded Measurement": 1.95
  },
  {
    "Molecule": "O=C(Nc1ccc(NCCN2CCCC2)nc1)c1cc(C(=O)c2c(Cl)ccc(Cl)c2F)c[nH]1 [Example 275]",
    "Recorded Measurement": 2.03
  },
  {
    "Molecule": "COc1ccc(Cl)c(C(=O)c2c[nH]c(C(=O)Nc3ccc(CC4CCN(C)CC4)nc3)c2)c1F [Example 236]",
    "Recorded Measurement": 1.98
  },
  {
    "Molecule": "O=C(Nc1ccc(NCCN2CCCCC2)nc1)c1cc(C(=O)c2c(Cl)ccc(Cl)c2F)c[nH]1 [Example 264]",
    "Recorded Measurement": 2.15
  },
  {
    "Molecule": "COc1ccc(Cl)c(C(=O)c2c[nH]c(C(=O)Nc3ccc(CN4CCN(C)CC4)nc3)c2)c1F [Example 246]",
    "Recorded Measurement": 1.84
  },
  {
    "Molecule": "CN(C)Cc1ccc(NC(=O)c2cc(C(=O)c3c(Cl)ccc(Cl)c3F)c[nH]2)cn1 [Example 277]",
    "Recorded Measurement": 1.56
  },
  {
    "Molecule": "COc1ccc(Cl)c(C(=O)c2c[nH]c(C(=O)Nc3cnc(CN4CCN(C)CC4)nc3)c2)c1F [Example 245]",
    "Recorded Measurement": 2.66
  },
  {
    "Molecule": "COCCN(C)Cc1ccc(NC(=O)c2cc(C(=O)c3c(Cl)ccc(Cl)c3F)c[nH]2)cn1 [Example 278]",
    "Recorded Measurement": 1.60
  },
  {
    "Molecule": "CCN(CC)CCNc1ncc(NC(=O)c2cc(C(=O)c3c(Cl)ccc(Cl)c3F)c[nH]2)cn1 [Example 100]",
    "Recorded Measurement": 2.18
  },
  {
    "Molecule": "O=C(Nc1ccc(NCCN2CCOCC2)nc1)c1cc(C(=O)c2c(Cl)ccc(Cl)c2F)c[nH]1 [Example 276]",
    "Recorded Measurement": 2.10
  },
  {
    "Molecule": "O=C(Nc1cnc(CC2CCNCC2)nc1)c1cc(C(=O)c2c(Cl)ccc(Cl)c2F)c[nH]1 [Example 253]",
    "Recorded Measurement": 2.38
  },
  {
    "Molecule": "COc1ccc(Cl)c(C(=O)c2c[nH]c(C(=O)Nc3cnc(CN4CCNCC4)nc3)c2)c1F [Example 250]",
    "Recorded Measurement": 2.76
  },
  {
    "Molecule": "CCN(CC)CCNc1ccc(NC(=O)c2cc(C(=O)c3c(Cl)ccc(Cl)c3F)c[nH]2)cn1 [Example 262]",
    "Recorded Measurement": 2.17
  },
  {
    "Molecule": "O=C(Nc1cnc(NCCN2CCOCC2)nc1)c1cc(C(=O)c2c(Cl)ccc(Cl)c2F)c[nH]1 [Example 103]",
    "Recorded Measurement": 2.13
  },
  {
    "Molecule": "O=C(Nc1ccc(CN2CCCCC2)nc1)c1cc(C(=O)c2c(Cl)ccc(Cl)c2F)c[nH]1 [Example 284]",
    "Recorded Measurement": 1.11
  },
  {
    "Molecule": "O=C(Nc1cnc(NCCN2CCCC2)nc1)c1cc(C(=O)c2c(Cl)ccc(Cl)c2F)c[nH]1 [Example 102]",
    "Recorded Measurement": 1.93
  },
  {
    "Molecule": "O=C(Nc1ccc(CN2CCOCC2)nc1)c1cc(C(=O)c2c(Cl)ccc(Cl)c2F)c[nH]1 [Example 115]",
    "Recorded Measurement": 1.49
  },
  {
    "Molecule": "O=C(Nc1ccc(OC2CCNCC2)nc1)c1cc(C(=O)c2c(Cl)ccc(Cl)c2F)c[nH]1 [Example 109]",
    "Recorded Measurement": 1.96
  },
  {
    "Molecule": "O=C(Nc1ccc(CN2CCC(O)CC2)nc1)c1cc(C(=O)c2c(Cl)ccc(Cl)c2F)c[nH]1 [Example 282]",
    "Recorded Measurement": 1.64
  }
]
